B1: Serine/threonine-protein kinase A-Raf, residues 21 to 89; numbered along this chain, P10398 (parent)
chain: VKVYLPNKQRTVVTVRDGMSVYDSLDKALKVRGLNQDCCVVYRLIKGRKTVTAWDTAIAPLDGEELIVE

Variants of: B1
EXPERIMENT: abundance fitness (aPCA) (normalised: wild type 0, dead -1); higher = more abundant; growth selection in yeast, the domain comes from the species named
SETTINGS: Homo sapiens
Decide by abundance fitness: equal to or exceeding -0.1 means condition met, less means condition not met.

Would you please look over these solved cases?
> print(dat)
                              residue.codes     classification
1  VKVYLPNKQRTVVTVRDGMSVYDSLDKALKVRGLNQDCCVVYRLIKGRKTVTAWDTAVAPLDGEELIVE [I58V]  condition not met
2  VKVYLPNKQRTVVTVRDGMSVYDSLDKALKVRGLNQDCCVVYNLIKGRKTVTAWDTAIAPLDGEELIVE [R43N]  condition not met
3  VKVYLPNKQRTVVTVRDGMSVYDSLDKALKVRDLNQDCCVVYRLIKGRKTVTAWDTAIAPLDGEELIVE [G33D]  condition not met
4  VKVYLPNKQRTVVTVRDGMSVYDSLDKALKVRGLNQDCCVVYRLIKGRKTVTAWDTAIKPLDGEELIVE [A59K]      condition met
5  VKVYLPNKQRTVVTVRDGMSVYDSLDRALKVRGLNQDCCVVYRLIKGRKTVTAWDTAIAPLDGEELIVE [K27R]      condition met
6  VKVYLPNKQRTVVTVRDGLSVYDSLDKALKVRGLNQDCCVVYRLIKGRKTVTAWDTAIAPLDGEELIVE [M19L]  condition not met

Item VKVYLPNKQRTVVTVRDGMSVYDSLDKALKVRGLNQDCCVVYRLIKGRKTVTAWDTAIGPLDGEELIVE [A59G] with abundance fitness of -0.1 or above? condition met

Quick one: VKVYLPNKQRTVVTVRDGMSVYDSLDKALKVRGLNQDCCVVYRLIKGRKTVTAYDTAIAPLDGEELIVE [W54Y] condition not met

Quick one: VKVYLPNKQRTVVTVRDGMSPYDSLDKALKVRGLNQDCCVVYRLIKGRKTVTAWDTAIAPLDGEELIVE [V21P] condition not met
